B1: glmS ribozyme (parent)
chain: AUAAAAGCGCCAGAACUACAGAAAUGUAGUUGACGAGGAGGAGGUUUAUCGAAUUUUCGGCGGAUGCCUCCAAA

# Variants of: B1
# test-details: self-cleavage kobs at 10000 uM GlcN6P; higher = faster cleavage; RNA array
# test-settings: with glucosamine-6-phosphate
Variants at the floor of the assay were thinned out.
assay-metric: self-cleavage kobs at 10000 uM GlcN6P

1) C10A A33C A64C	< 1e-05 s⁻¹
2) C11G C16A G38C	< 1e-05 s⁻¹
3) G13C G35A	< 1e-05 s⁻¹
4) A39C A48C	5.69e-05 s⁻¹
5) U57G G59C	< 1e-05 s⁻¹
6) U31C G63C	< 1e-05 s⁻¹
7) A14C G29U	0.000697 s⁻¹
8) G41C U47G	0.000117 s⁻¹
9) G32U A33C U45G U65A	< 1e-05 s⁻¹
10) C10U G13C G63U	< 1e-05 s⁻¹
11) U30G A64C	3.61e-05 s⁻¹
12) G51A U57C	< 1e-05 s⁻¹
